assay.system: T1, human HER3-Fc (R&D Systems, 348-RB) (human, UniProt P21860 20-643)
T1 construct: Bought; also called hHER3-Fc; Fc-HER3; Fc part of the bought chimera not given, not described
measurement.protocol: SPR, HER3-Fc captured by anti-Fc
Threshold-based label: kon under 400000 M⁻¹ s⁻¹ gives TRUE, kon not under 400000 M⁻¹ s⁻¹ gives FALSE.

[
  {
    "binder": "04C07 (VHH, also called HER3MS04C07; HER3MS004C07) VHH: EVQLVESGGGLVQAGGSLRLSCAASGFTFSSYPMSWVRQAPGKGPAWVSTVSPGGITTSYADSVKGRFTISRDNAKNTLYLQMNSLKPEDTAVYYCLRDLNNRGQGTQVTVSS",
    "cat": "FALSE"
  },
  {
    "binder": "21B02 (VHH) VHH: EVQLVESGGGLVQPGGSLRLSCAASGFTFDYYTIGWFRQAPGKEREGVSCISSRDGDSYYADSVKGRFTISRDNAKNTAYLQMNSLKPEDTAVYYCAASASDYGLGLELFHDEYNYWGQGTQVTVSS",
    "cat": "FALSE"
  },
  {
    "binder": "18G11 (VHH, c-myc, His6-tagged form as expressed; also called HER3MS18G11; HER3MS018G11) VHH: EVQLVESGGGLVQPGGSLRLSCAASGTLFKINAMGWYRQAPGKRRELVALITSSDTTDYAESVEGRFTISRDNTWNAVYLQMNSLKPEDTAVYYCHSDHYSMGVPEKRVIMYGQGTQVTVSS",
    "cat": "TRUE"
  },
  {
    "binder": "18B05 (VHH) VHH: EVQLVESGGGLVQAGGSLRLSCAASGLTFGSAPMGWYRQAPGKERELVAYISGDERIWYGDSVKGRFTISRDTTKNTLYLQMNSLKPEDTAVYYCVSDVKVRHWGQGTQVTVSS",
    "cat": "FALSE"
  },
  {
    "binder": "18F05 (VHH, also called 18F5) VHH: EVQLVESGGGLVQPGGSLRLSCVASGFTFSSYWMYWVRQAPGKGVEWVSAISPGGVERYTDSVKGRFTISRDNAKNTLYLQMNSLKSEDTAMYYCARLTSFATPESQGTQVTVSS",
    "cat": "FALSE"
  },
  {
    "binder": "18E08 (VHH) VHH: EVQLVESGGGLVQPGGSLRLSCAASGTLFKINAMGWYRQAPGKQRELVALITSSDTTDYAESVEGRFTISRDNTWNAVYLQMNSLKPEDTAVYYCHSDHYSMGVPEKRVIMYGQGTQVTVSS",
    "cat": "TRUE"
  },
  {
    "binder": "17E08 (VHH) VHH: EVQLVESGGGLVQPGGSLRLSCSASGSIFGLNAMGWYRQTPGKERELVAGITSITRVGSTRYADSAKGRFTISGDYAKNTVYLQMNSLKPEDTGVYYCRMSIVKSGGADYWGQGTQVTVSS",
    "cat": "TRUE"
  }
]
